Measured pEC50, listed per entry for reference.
biological target: T1, huNav1.7α + β1-β2-β3 (human Nav1.7α co-expressed with human Navβ1, Navβ2 and Navβ3 on cells) (human); assay: binding FACS, CHO FlpIn cells
T1 construct: also called huNav1.7-beta1-beta2-beta3; CHO FlpIn huNav1.7α + β1-β2-β3
pEC50 is a log-scale quantity: -log10 of the concentration expressed in molar.

Q: Can you share its pEC50? I mean this binder: F010301841 (VHH, also called F0103387G04(L11V, A12V, K33R, R39Q, S50Y, S56D, T83R, V89L, N93R)) VHH: EVQLVESGGGVVQPGGSLRLSCAASGPVFNINRMAWYRQAPGKQRELVAYVTPTGDISYTDSVKGRFTISRDGSKRWSLQMNSLRPEDTALYYCRALLQPDSYSNTRTYWGQGTLVTVSS
Result: 7.85

Q: Give its pEC50 value. Item: F010302383 (VHH, also called F0103387G04(L11V, A12V, K33R, R39Q, S50Y, S56D, T60A, D72G, W78V, S79Y, T83R, V89L, N93R, D99S, N100cG) + FLAG3-HIS6) VHH: EVQLVESGGGVVQPGGSLRLSCAASGPVFNINRMAWYRQAPGKQRELVAYVTPTGDISYADSVKGRFTISRGGSKRVYLQMNSLRPEDTALYYCRALLQPSSYSGTRTYWGQGTLVTVSS
Result: 8.17

Q: Any idea what pEC50 was measured for F010302330 (VHH, also called F0103387G04(L11V, A12V, K33R, R39Q, S50Y, S56D, T60A, G73A, W78V, S79Y, T83R, V89L, N93R, S100R)) VHH: EVQLVESGGGVVQPGGSLRLSCAASGPVFNINRMAWYRQAPGKQRELVAYVTPTGDISYADSVKGRFTISRDASKRVYLQMNSLRPEDTALYYCRALLQPDRYSNTRTYWGQGTLVTVSS ?
Result: 8.00

Q: Sample F010301840 (VHH, also called F0103387G04(R76_V78insT)(L11V, A12V, K33R, R39Q, S50Y, S56D, T83R, V89L, N93R)) VHH: EVQLVESGGGVVQPGGSLRLSCAASGPVFNINRMAWYRQAPGKQRELVAYVTPTGDISYTDSVKGRFTISRDGSKRTWSLQMNSLRPEDTALYYCRALLQPDSYSNTRTYWGQGTLVTVSS — what was its pEC50?
Result: 7.33
